Measured IC50, listed per entry.
- target-or-test-system: trypsin-activated recombinant human renin (Homo sapiens)
- Sequence (P00797 67-406): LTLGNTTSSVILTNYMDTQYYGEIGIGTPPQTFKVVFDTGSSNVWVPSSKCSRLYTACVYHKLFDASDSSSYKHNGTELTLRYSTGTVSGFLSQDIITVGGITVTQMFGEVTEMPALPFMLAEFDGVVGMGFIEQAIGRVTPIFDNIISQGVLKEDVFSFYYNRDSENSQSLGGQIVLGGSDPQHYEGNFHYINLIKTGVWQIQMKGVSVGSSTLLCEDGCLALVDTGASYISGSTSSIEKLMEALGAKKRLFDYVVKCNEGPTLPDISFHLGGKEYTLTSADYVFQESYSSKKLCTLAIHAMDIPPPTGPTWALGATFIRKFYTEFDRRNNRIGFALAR
- assay-method-text: IC50 for renin, fluorescence of quenched peptide substrate (protocols of Example 3 or 4)
- assay-context: protocols described in Example 3 or 4; class according to the IC50 values; read-out: IC50 for renin, class in words

| molecule | IC50 |
| --- | --- |
| COCCCC[C@](O)(CCN(C)C(=O)[C@H]1C[C@@H](N)[C@@H](O)C1)c1cccc(Cl)c1-c1cccc(C)c1 | 0.01 to 50 nM |

For the next question, use this molecule.
Prompt: Provide one value: measured IC50 of COCCCCC(O)(CCN(C)C(=O)[C@H]1C[C@@H](N)[C@@H](O)C1)c1cccc(Cl)c1-c1cccc(C)c1 (some centres unmarked)
Response: 0.01 to 50 nM
